RUN DESCRIPTION: blockers of ER-stress CHOP reporter expression – cell-based, unfolded protein response, luciferase reporter, primary screen (AID 2732);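 also: 0% = tunicamycin plus vehicle and 100% = wells without tunicamycin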
TEST CONDITIONS: CHO-K1 CHOP-promoter luciferase, tunicamycin-induced, 15-18 h; at 10 µM
In all, about 220,000 compounds went through this assay and about 8,200 (3.7%) were called active.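 The calls were made as follows: active = compounds that reduced the stress-induced luciferase reporter signal by more than about 70% of percent inhibition (limit read from the data); inactive = the rest.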 Many of the other results were omitted from the sample, so actives are more common in it than they were.
Select the correct class. Options are 1 (yes) = active, 0 (no) = inactive and nothing else.

COC(OC)c1ccnc(SCc2ccccc2Cl)n1
0 (no)
COc1ccc(F)cc1S(=O)(=O)N1CCCCC1
0 (no)
O=C(O)COc1ccc(-c2nccc(-c3cccs3)n2)cc1
1 (yes)
Cc1ccccc1Cn1c2ccccc2c2cnn(CC(=O)NCc3ccco3)c(=O)c21
1 (yes)
O=c1oc(-c2ccccc2NS(=O)(=O)c2ccc(Cl)cc2)nc2ccccc12
0 (no)
CC(C)c1nc(SCC(=O)NC(=O)NC(C)(C)C)n[nH]1
0 (no)

--- query ---
Q: Per the assay record, what outcome was assigned to "Cc1cc(-c2nc(C)c(-c3nnc(SCC(=O)Nc4ccccc4)n3C)s2)no1" ?
Result: 0 (no)

###

Item-by-item account of inhibition
RUN DESCRIPTION: blockers of ER-stress CHOP reporter expression – cell-based, unfolded protein response, luciferase reporter, primary screen (AID 2732);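 also: 0% = tunicamycin plus vehicle and 100% = wells without tunicamycin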
TEST CONDITIONS: CHO-K1 CHOP-promoter luciferase, tunicamycin-induced, 15-18 h; at 10 µM; hits give high values
Among all 220,000 compounds or so, about 8,200 (3.7%) were called active. This excerpt belongs to a sample that is enriched for actives.

CC(C)C(=O)N1CCC2(CC1)Oc1ccc(F)cc1C(=O)C21CC(c2ccccc2)=NO1 (stereo unspecified)
19.9% (inactive)

Q: Any idea what inhibition was measured for "Cc1ccc(NC(=O)CSc2nnc(COc3ccccc3C)o2)cc1" ?
Result: 39.4% (inactive)

Q: State the recorded inhibition for this entry: "Cc1ccc(OCC(=O)N/N=C\c2ccco2)c(C)c1"
Result: 12.7% (inactive)

Q: Fill blank: measured inhibition of the compound "CN(C)S(=O)(=O)c1ccc(NC(=O)COC(=O)c2n[nH]c3ccccc23)cc1" is ____.
Result: 22.3% (inactive)

Q: What inhibition value was documented for this compound, "FC(F)(F)Oc1ccc(-c2cn3cccnc3n2)cc1" ?
Result: 2.48% (inactive)

Q: Could you share which inhibition value was measured for "C=C(C)CNC(=S)Nc1ccc(S(=O)(=O)Nc2cnc3ccccc3n2)cc1" ?
Result: 11.6% (inactive)

###

RUN DESCRIPTION: blockers of ER-stress CHOP reporter expression – cell-based, unfolded protein response, luciferase reporter, primary screen (AID 2732);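 also: 0% = tunicamycin plus vehicle and 100% = wells without tunicamycin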
TEST CONDITIONS: CHO-K1 CHOP-promoter luciferase, tunicamycin-induced, 15-18 h; at 10 µM
About 8,200 (3.7%) of roughly 220,000 compounds were called active.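 Rule for the calls: active = compounds that reduced the stress-induced luciferase reporter signal by more than about 70% of percent inhibition (limit read from the data); inactive = the rest.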 For the sample, actives were picked, then their nearest neighbours and some compounds at random.
Select the correct class. Options are y = active, n = inactive and nothing else.

Worked examples, 3 compounds total:
Cc1cc(NC(=O)CN2CCCC(C)C2)n(-c2nc3ccccc3s2)n1 (configuration not stated)
n
CCN(CC(=O)Nc1ccc(S(=O)(=O)N2CCCC2)cc1)CC(=O)Nc1cccc(OC)c1
n
COc1ccc(CCN(C)CCN2C(=O)c3ccccc3C2=O)cc1OC
n

Q: Short answer needed: outcome of this test for "Cc1cccc(OCCC(=O)Nc2cc(S(=O)(=O)N3CCCCC3)ccc2N2CCOCC2)c1" ?
Result: n

Q: Recorded test outcome, item "O=[N+]([O-])c1ccc(N=Cc2c(O)ccc3ccccc23)cc1"
Result: n

Q: // outcome(item) with item = "Cc1ccc(-c2csc(NNC(=O)c3ccccc3)n2)cc1"
Result: n

Q: Query: recorded result category for "CCOCc1nnc(NC(=O)CSc2ccc(C)cc2)s1" in this test
Result: n

Q: Please state the recorded outcome for this compound: CC(O)c1nc2c(c(=O)n(C)c(=O)n2C)n1C (configuration not stated)
Result: n

Q: Returns: the outcome recorded for "COc1ccc(CC(=O)Nc2ccc(C(=O)NC(C)(C)C)cc2)cc1" in this assay.
Result: n
